Test system: HL-60
Experiment: Resistance index, ratio IC50 for human HL60/MX2 cells to IC50 for human HL60 cells
Assay type: functional
readout.type: Ratio IC50
Reply with the value as a number alone.

Qu. For HL-60, give the measured Ratio IC50 of the entry CN(C)CCOc1cccc2c1-c1c(c3ccccc3c(=O)n1CCN(C)C)C2=O
Ans. 1.2

Qu. Give Ratio IC50 for CN(C)CCCCn1c2c(c3ccccc3c1=O)C(=O)c1ccc(OCCCN(C)C)cc1-2 tested on HL-60.
Ans. 1.2

Qu. GET Ratio IC50 where system = HL-60 and item = O=C1c2c(O)ccc(O)c2C(=O)c2c(NCCNCCO)ccc(NCCNCCO)c21 [MITOXANTRONE]
Ans. 24

Qu. GET Ratio IC50 | system: HL-60 | item: CN(C)CCCOc1ccc2c(c1)C(=O)c1c-2n(CCN(C)C)c(=O)c2ccccc12
Ans. 1.1

Qu. Report Ratio IC50 from HL-60 testing of CN(C)CCCOc1ccc2c(c1)C(=O)c1c-2n(CCCN(C)C)c(=O)c2ccccc12
Ans. 0.6

Values were extracted from ChEMBL document CHEMBL1759981.
